Each item that follows carries a reported IC50.
- TARGET: crosslinked smooth muscle actomyosin (chicken gizzard smooth muscle myosin subfragment-1 crosslinked to cardiac or skeletal actin) (Gallus gallus)
PROPERTY_NAME: IC50 (nM)

COMPOUND: NCC(=O)N1CCC(COC(=O)Nc2ccc(Cl)cc2)(C(=O)NCc2ccccc2Cl)CC1
PROPERTY_NAME: IC50
OBSERVED_RESULT: 569
--
COMPOUND: COc1cccc(NC(=O)OCC2(C(=O)NCc3ccccc3Cl)CCOCC2)c1
PROPERTY_NAME: IC50
OBSERVED_RESULT: 19000
--
COMPOUND: CC(C)(C)OC(=O)NCC(=O)N1CCC(COC(=O)Nc2ccc(C(F)(F)F)cc2)(C(=O)NCc2cccc(Cl)c2Cl)CC1
PROPERTY_NAME: IC50
OBSERVED_RESULT: 3720
--
COMPOUND: CCc1ccc(NC(=O)OCC2(C(=O)NCc3ccccc3Cl)CCN(C(=O)CNC)CC2)cc1
PROPERTY_NAME: IC50
OBSERVED_RESULT: 213
--
COMPOUND: CCc1ccc(NC(=O)NC[C@@H]2CCCN2C(=O)OCc2ccccc2Cl)cc1
PROPERTY_NAME: IC50
OBSERVED_RESULT: 3530
--
COMPOUND: CCc1ccc(NC(=O)OCCN(CCCCO)C(=O)NCc2ccccc2Cl)cc1
PROPERTY_NAME: IC50
OBSERVED_RESULT: 355
--
COMPOUND: CCc1ccc(NC(=O)OCC2(C(=O)NCc3ccccc3Cl)CCN(C(=O)C(N)CC(=O)O)CC2)cc1 (stereo not drawn)
PROPERTY_NAME: IC50
OBSERVED_RESULT: 1530
--
COMPOUND: CCc1ccc(NC(=O)OCC2(C(=O)NCc3ccccc3Cl)CCN(C(=O)C(N)CO)CC2)cc1 (stereo not drawn)
PROPERTY_NAME: IC50
OBSERVED_RESULT: 143
--
COMPOUND: CCc1ccc(NC(=O)OCC2(C(=O)NCc3ccccc3Cl)CCN(CCN)CC2)cc1
PROPERTY_NAME: IC50
OBSERVED_RESULT: 1160
--
COMPOUND: CCc1ccc(NC(=O)N2CCN(C(=O)CN)C(C(=O)NCc3ccccc3Cl)C2)cc1 (stereo not drawn)
PROPERTY_NAME: IC50
OBSERVED_RESULT: 15200
--
COMPOUND: CCc1ccc(NC(=O)OCC2(C(=O)NCc3ccccc3CC)CCN(C(=O)CN)CC2)cc1
PROPERTY_NAME: IC50
OBSERVED_RESULT: 951
--
COMPOUND: CCc1ccc(NC(=O)OC[C@H](C)N(CC(=O)O)C(=O)NCc2ccccc2Cl)cc1
PROPERTY_NAME: IC50
OBSERVED_RESULT: 1670
--
COMPOUND: CCc1ccc(NC(=O)OCC(C)(NC(=O)CNC(=O)OC(C)(C)C)C(=O)NCc2ccccc2Cl)cc1 (stereo not drawn)
PROPERTY_NAME: IC50
OBSERVED_RESULT: 19400
--
COMPOUND: CCc1ccc(NC(=O)OCC2(C(=O)NCc3ccccc3Cl)CCCN(C(=O)CO)C2)cc1 (stereo not drawn)
PROPERTY_NAME: IC50
OBSERVED_RESULT: 399
--
COMPOUND: Cc1ccc(NC(=O)OCC2(C(=O)NCc3ccccc3Cl)CCOCC2)cc1Cl
PROPERTY_NAME: IC50
OBSERVED_RESULT: 1960
--
COMPOUND: CCc1ccc(NC(=O)OCC2(C(=O)NCc3ccccc3C(F)(F)F)CCN(C(=O)CN)CC2)cc1
PROPERTY_NAME: IC50
OBSERVED_RESULT: 86
--
COMPOUND: CC(O)c1ccc(NC(=O)OCC2(C(=O)NCc3ccccc3Cl)CCOCC2)cc1 (stereo not drawn)
PROPERTY_NAME: IC50
OBSERVED_RESULT: 5230
--
COMPOUND: CCc1ccc(NC(=O)OCC2(C(=O)NCc3ccccc3Cl)CCN(C(=O)NC)CC2)cc1
PROPERTY_NAME: IC50
OBSERVED_RESULT: 302
--
COMPOUND: CCc1ccc(NC(=O)OCC2(C(=O)NCc3ccccc3Br)CCN(C(=O)CNC)CC2)cc1
PROPERTY_NAME: IC50
OBSERVED_RESULT: 168
--
COMPOUND: CCc1ccc(NC(=O)OC2CCCN(C(=O)NCc3ccccc3Cl)C2)cc1 (stereo not drawn)
PROPERTY_NAME: IC50
OBSERVED_RESULT: 2260
--
COMPOUND: CCc1ccc(NC(=O)OCC2(CC(=O)NCc3ccccc3Cl)CCN(C(=O)CN)CC2)cc1
PROPERTY_NAME: IC50
OBSERVED_RESULT: 3740
--
COMPOUND: CCc1ccc(NC(=O)NCC(C)(C)C(=O)NCc2ccccc2Cl)cc1
PROPERTY_NAME: IC50
OBSERVED_RESULT: 8820
--
COMPOUND: CCc1ccc(NC(=O)OCC2(C(=O)NCc3ccccc3Cl)CCOCC2)cc1
PROPERTY_NAME: IC50
OBSERVED_RESULT: 197
--
COMPOUND: CCc1ccc(NC(=O)OCCN(C)C(=O)NCc2cccc(Cl)c2Cl)cc1
PROPERTY_NAME: IC50
OBSERVED_RESULT: 59
--
COMPOUND: CCc1ccc(NC(=O)OCC2(C(=O)NCc3ccccc3Cl)CCN(C(=O)CCCNC(=O)OC(C)(C)C)CC2)cc1
PROPERTY_NAME: IC50
OBSERVED_RESULT: 481
--
COMPOUND: CCc1ccc(NC(=O)OCC2(C(=O)NCc3cccc(F)c3C)CCN(C(=O)CN)CC2)cc1
PROPERTY_NAME: IC50
OBSERVED_RESULT: 81
--
COMPOUND: CCc1ccc(NC(=O)OCC2(C(=O)NCc3ccccc3OC)CCN(C(=O)CNC(=O)OC(C)(C)C)CC2)cc1
PROPERTY_NAME: IC50
OBSERVED_RESULT: 11300
--
COMPOUND: CCc1ccc(NC(=O)OCC2(C(=O)NCc3ccccc3Cl)CCN(C(=O)CN)C2)cc1 (stereo not drawn)
PROPERTY_NAME: IC50
OBSERVED_RESULT: 526
--
COMPOUND: CCc1ccc(NC(=O)OCC2(C(=O)NCc3ccccc3Cl)CCN(C(=O)[C@@H](CO)NC(=O)OC(C)(C)C)CC2)cc1
PROPERTY_NAME: IC50
OBSERVED_RESULT: 3500
--
COMPOUND: NCC(=O)N1CCC(COC(=O)Nc2ccc3ccccc3c2)(C(=O)NCc2ccccc2Cl)CC1
PROPERTY_NAME: IC50
OBSERVED_RESULT: 83

====

- TARGET: crosslinked smooth muscle actomyosin (chicken gizzard smooth muscle myosin subfragment-1 crosslinked to cardiac or skeletal actin) (Gallus gallus, UniProt P10587)
pIC50: −log10 of the molar value.
Each item that follows carries a reported pIC50.
PROPERTY_NAME: pIC50

COMPOUND: CCc1ccc(NC(=O)OC[C@@H]2CCCN2C(=O)NCc2ccccc2Cl)cc1
OBSERVED_RESULT: 6.73

COMPOUND: CCc1ccc(NC(=O)OC2CCCN(C(=O)NCc3ccccc3C)C2)cc1 (stereo not shown)
OBSERVED_RESULT: 5.26

COMPOUND: CCc1ccc(NC(=O)OC(C)CN(C)C(=O)NCc2ccccc2Cl)cc1 (stereo not shown)
OBSERVED_RESULT: 5.07

COMPOUND: CCc1ccc(NC(=O)OCC2(C(=O)NCc3ccc(Cl)cc3F)CCN(C(=O)CN)CC2)cc1
OBSERVED_RESULT: 6.58

COMPOUND: CCc1ccc(NC(=O)OCCN(C)C(=O)N(C)Cc2ccccc2Cl)cc1
OBSERVED_RESULT: 5.68

COMPOUND: CCc1ccc(NC(=O)OCC2(C(=O)NCc3ccc(F)cc3Cl)CCN(C(=O)CNC(=O)OC(C)(C)C)CC2)cc1
OBSERVED_RESULT: 5.97

COMPOUND: CCc1ccc(NC(=O)OCC2(C(=O)OC)CCN(C(=O)CN)CC2)cc1
OBSERVED_RESULT: 4.75

COMPOUND: CCc1ccc(NC(=O)OCC2(C(=O)NCc3ccccc3Cl)CCN(C(C)=O)CC2)cc1
OBSERVED_RESULT: 6.38

COMPOUND: CCc1ccc(N(C)C(=O)OCC2(C(=O)NCc3ccccc3Cl)CCOCC2)cc1
OBSERVED_RESULT: 5.12

COMPOUND: CCc1ccc(NC(=O)OCC2(C(=O)NCc3ncccc3C)CCN(C(=O)CN)CC2)cc1
OBSERVED_RESULT: 5.53

COMPOUND: Cc1ccc(NC(=O)OCC2(C(=O)NCc3ccccc3Cl)CCOCC2)cc1
OBSERVED_RESULT: 6.16

COMPOUND: Cc1ccc(NC(=O)OCC2(C(=O)NCc3ccccc3Cl)CCOCC2)cc1C
OBSERVED_RESULT: 5.63

COMPOUND: CCc1ccc(NC(=O)OCC2(C(=O)NCc3ccccc3Cl)CCN(S(C)(=O)=O)CC2)cc1
OBSERVED_RESULT: 6.30
